Data origin: PubChem BioAssay AID651551

Target: PEG-3 (UniProt Q6IN02)
Test: GAPDH versus PEG-3 reporter suppression – cell-based, luminescence, counter-screen for PEG-3 promoter inhibitor project, SAR follow-up (AID 651551)
Settings: HeLa PEG-Prom / GAPDH luciferase reporter, 6 or 24 h, run 2, 6 h; at 99 µM (top of the series)

{"SMILES ENTRY": "Cc1nc(NC(=O)c2ccccc2)sc1-c1csc(Nc2ccccc2Cl)n1", "inhibition % (higher = more inhibition) (%)": 7.99}
{"SMILES ENTRY": "COc1ccc(Cl)cc1Nc1nc(-c2sc(NC(=O)c3ccccc3)nc2C)cs1", "inhibition % (higher = more inhibition) (%)": 42.5}
{"SMILES ENTRY": "O=C(Nc1nccs1)c1nn(-c2ccccc2)c(=O)c2ccccc12", "inhibition % (higher = more inhibition) (%)": 28.7}
{"SMILES ENTRY": "COc1ccc(-n2nc(C(=O)NCC(=O)Nc3ccc(OC)c(OC)c3)c3ccccc3c2=O)cc1", "inhibition % (higher = more inhibition) (%)": 13.5}
{"SMILES ENTRY": "Cc1nc(NC(=O)c2ccccc2)sc1-c1csc(Nc2ccccc2)n1", "inhibition % (higher = more inhibition) (%)": 5.23}
{"SMILES ENTRY": "COc1ccc(-n2nc(C(=O)NCC(=O)Nc3cccc(OC)c3)c3ccccc3c2=O)cc1", "inhibition % (higher = more inhibition) (%)": 2.47}
{"SMILES ENTRY": "Cc1cc(NC(=O)c2ccccc2C(F)(F)F)n(-c2nc3ccccc3[nH]2)n1", "inhibition % (higher = more inhibition) (%)": 88.2}
{"SMILES ENTRY": "Cc1cc(NC(=O)c2cccc(C)c2C)n(-c2nc3ccccc3[nH]2)n1", "inhibition % (higher = more inhibition) (%)": 16.4}
